Target: HLA A01.01 (Homo sapiens, UniProt P04439, A114D/A174V/A182V/D101N/D185E/E176A/E190D/L180R/Q94H/R68K/S129P/T187R/V100A/V91M/W191G)
Assay: MHC-I peptide binding affinity assay (displacement of radiolabeled reference peptide)
Settings: Table 11, EGFR T790M peptides; HLA allele A01.01; read-out: Affinity
Excerpt: 31:813 (1994). […] 149:1896 (1992)).
No end group written: not given here.

Monomer Sequence: LTSTVQLIM
IC50 [µM]: 2.89

----------
# IC50 per entry
molecular target: HLA A24.02; test: MHC-I peptide binding affinity assay (displacement of radiolabeled reference peptide); settings: Table 11, EGFR T790M peptides; HLA allele A24.02

Structure Smiles: CC[C@H](C)[C@H](NC(=O)[C@H](CC(C)C)NC(=O)[C@H](CCC(N)=O)NC(=O)[C@@H](N)C(C)C)C(=O)N[C@@H](CCSC)C(=O)N[C@@H](CCC(N)=O)C(=O)N[C@@H](CC(C)C)C(=O)N[C@@H](CCSC)C(=O)N1CCC[C@H]1C(=O)N[C@@H](Cc1ccccc1)C(=O)O
IC50 [µM]: 4.1

Structure Smiles: CC[C@H](C)[C@H](NC(=O)[C@H](CC(C)C)NC(=O)[C@@H](N)CCC(N)=O)C(=O)N[C@@H](CCSC)C(=O)N[C@@H](CCC(N)=O)C(=O)N[C@@H](CC(C)C)C(=O)N[C@@H](CCSC)C(=O)N1CCC[C@H]1C(=O)N[C@@H](Cc1ccccc1)C(=O)O
IC50 [µM]: 2.03

Structure Smiles: CSCC[C@H](NC(=O)[C@H](CC(C)C)NC(=O)[C@H](CCC(N)=O)NC(=O)[C@@H](N)CCSC)C(=O)N1CCC[C@H]1C(=O)N[C@@H](Cc1ccccc1)C(=O)NCC(=O)N[C@@H](CS)C(=O)N[C@@H](CC(C)C)C(=O)N[C@@H](CC(C)C)C(=O)O
IC50 [µM]: 18.9

Structure Smiles: CC[C@H](C)[C@H](N)C(=O)N[C@@H](CCSC)C(=O)N[C@@H](CCC(N)=O)C(=O)N[C@@H](CC(C)C)C(=O)N[C@@H](CCSC)C(=O)N1CCC[C@H]1C(=O)N[C@@H](Cc1ccccc1)C(=O)NCC(=O)N[C@@H](CS)C(=O)N[C@@H](CC(C)C)C(=O)O
IC50 [µM]: 14.1

----------
Molecular target: HLA A01.01 (Homo sapiens, UniProt P04439, A114D/A174V/A182V/D101N/D185E/E176A/E190D/L180R/Q94H/R68K/S129P/T187R/V100A/V91M/W191G)
Assay: MHC-I peptide binding affinity assay (displacement of radiolabeled reference peptide)
Details: Table 10, BTK C481S peptides; HLA allele A01.01; read-out: Affinity
From the text: 31:813 (1994). […] 149:1896 (1992)).
No end group written: not given here.
Quantity Measured: IC50 (nM)

Monomer Sequence: YMANGSLLNY
Value Measured: 13.2

----------
biological target: HLA A02.01 (Homo sapiens, UniProt P04439, D140Y/D185E/D98H/E176V/E277Q/G131W/G231S/I119V/I121R/I166T/I218V/L300P/L318F/N151K/N90K/P208A/P217A/Q86G/Q94H/R138H/R169H/T345S); assay: MHC-I peptide binding affinity assay (displacement of radiolabeled reference peptide)
pIC50: −log10 of the molar value. No end group written: not given here.

Monomer Sequence: STVQLIMQL
pIC50: 5.14

----------
target: HLA A03.01 (Homo sapiens, UniProt P04439); assay: MHC-I peptide binding affinity assay (displacement of radiolabeled reference peptide); design: made in house; host or cells: E. coli; details: Table 10, BTK C481S peptides; HLA allele A03.01
No end group written: not given here.
Quantity Measured: IC50 (nM)

Monomer Sequence: YMANGSLLNY
Value Measured: 95.9
